TEST_METHOD_NOTES: Inhibition of glucose-induced insulin secretion in rat pancreatic islets assessed as residual insulin release at 50 uM
Type: functional, Pancreatic islet
Overview of recorded Activity for various compounds
OUTCOME_MEASURE: Activity (%)

>>> print(df.to_string())
                         sample_smiles  outcome_measure  reported_value
 0  O=S1(=O)N=C(NC2CCC2)Nc2cc(Cl)ccc21         Activity            9.58
 1  O=S1(=O)N=C(NC2CCC2)Nc2c(Cl)cccc21         Activity          102.55
 2   CC(C)NC1=NS(=O)(=O)c2ccc(Cl)cc2N1         Activity            6.38
 3   CC(C)NC1=NS(=O)(=O)c2cc(Cl)ccc2N1         Activity            5.66
 4     CCCNC1=NS(=O)(=O)c2cc(Cl)ccc2N1         Activity            3.56
 5   O=S1(=O)N=C(NC2CC2)Nc2cc(Cl)ccc21         Activity            7.97
 6   O=S1(=O)N=C(NC2CC2)Nc2ccc(Cl)cc21         Activity            5.82
 7     CCCNC1=NS(=O)(=O)c2cccc(Cl)c2N1         Activity           94.69
 8  O=S1(=O)N=C(NC2CCC2)Nc2ccc(Cl)cc21         Activity            8.11
 9   CC(C)NC1=NS(=O)(=O)c2cccc(Cl)c2N1         Activity           96.88
10      CCNC1=NS(=O)(=O)c2cc(Cl)ccc2N1         Activity            2.09

The measured values listed here are drawn from ChEMBL document CHEMBL1156766.
